These measurements were taken from BindingDB's records for patent WO2025049746.

target: Bifunctional 3'-5' exonuclease/ATP-dependent helicase WRN [480-1251] (UniProt Q14191); construct: 480-1251; experiment: Biochemical Activity Assays
Sequence (Q14191 480-1251): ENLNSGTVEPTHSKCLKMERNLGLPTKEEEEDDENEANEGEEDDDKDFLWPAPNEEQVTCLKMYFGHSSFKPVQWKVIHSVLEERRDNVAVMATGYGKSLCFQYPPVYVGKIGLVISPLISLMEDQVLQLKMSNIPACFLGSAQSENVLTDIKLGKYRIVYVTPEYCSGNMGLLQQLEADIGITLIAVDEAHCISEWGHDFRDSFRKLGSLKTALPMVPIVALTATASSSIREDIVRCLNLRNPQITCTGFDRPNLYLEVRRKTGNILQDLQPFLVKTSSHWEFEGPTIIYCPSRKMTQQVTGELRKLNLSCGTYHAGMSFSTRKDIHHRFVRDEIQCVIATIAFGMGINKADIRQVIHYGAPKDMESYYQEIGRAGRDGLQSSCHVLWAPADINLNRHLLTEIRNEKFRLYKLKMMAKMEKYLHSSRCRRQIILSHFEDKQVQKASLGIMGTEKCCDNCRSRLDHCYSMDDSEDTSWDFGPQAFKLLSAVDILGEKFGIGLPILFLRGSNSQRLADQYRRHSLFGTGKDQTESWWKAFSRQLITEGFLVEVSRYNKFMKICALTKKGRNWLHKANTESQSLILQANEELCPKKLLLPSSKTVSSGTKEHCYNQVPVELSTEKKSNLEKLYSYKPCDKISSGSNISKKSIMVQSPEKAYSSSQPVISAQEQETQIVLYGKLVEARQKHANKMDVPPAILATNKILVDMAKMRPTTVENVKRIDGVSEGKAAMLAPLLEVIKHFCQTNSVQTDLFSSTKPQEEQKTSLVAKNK
MEASURED_ATTRIBUTE: IC50 (nM)

>  <MOLECULAR_STRING>
CCc1c(N2CCN(C(=O)c3cc(C)c(O)cc3O)CC2)c(=O)n2nc(-c3ccc4c(c3)COC4)nc2n1CC(=O)Nc1ccc(C(F)(F)F)cc1Cl

>  <IC50 [nM]>
303

$$$$

1 = CCc1c(N2CCN(C(=O)c3ncnc(C)c3O)CC2)c(=O)n2nc(-c3ccc4c(c3)OC(F)(F)O4)nc2n1CC(=O)Nc1ccc(C(F)(F)F)cc1Cl
2 = CCc1c(N2CCN(C(=O)c3ncnc(C)c3O)CC2)c(=O)n2nc(-c3ccc4c(c3)CC(=O)N4C)nc2n1CC(=O)Nc1ccc(C(F)(F)F)cc1Cl
Enquiry: Exercise: compare 1 and 2 ; which one has the greater IC50? I would appreciate it if you answered with the label of your choice.
Return: 1
